molecular target: Ephrin type-B receptor 4 (Homo sapiens); test: Inhibition of recombinant human N-terminal His6-tagged EphB4 kinase domain (E605 to E890 residues) expressed in baculovirus using poly-AEKY as substrate after 150 mins in presence of gamma33P-ATP by liquid scintillation spectrometry
Sequence (P54760 whole entry, the tested form may be a part): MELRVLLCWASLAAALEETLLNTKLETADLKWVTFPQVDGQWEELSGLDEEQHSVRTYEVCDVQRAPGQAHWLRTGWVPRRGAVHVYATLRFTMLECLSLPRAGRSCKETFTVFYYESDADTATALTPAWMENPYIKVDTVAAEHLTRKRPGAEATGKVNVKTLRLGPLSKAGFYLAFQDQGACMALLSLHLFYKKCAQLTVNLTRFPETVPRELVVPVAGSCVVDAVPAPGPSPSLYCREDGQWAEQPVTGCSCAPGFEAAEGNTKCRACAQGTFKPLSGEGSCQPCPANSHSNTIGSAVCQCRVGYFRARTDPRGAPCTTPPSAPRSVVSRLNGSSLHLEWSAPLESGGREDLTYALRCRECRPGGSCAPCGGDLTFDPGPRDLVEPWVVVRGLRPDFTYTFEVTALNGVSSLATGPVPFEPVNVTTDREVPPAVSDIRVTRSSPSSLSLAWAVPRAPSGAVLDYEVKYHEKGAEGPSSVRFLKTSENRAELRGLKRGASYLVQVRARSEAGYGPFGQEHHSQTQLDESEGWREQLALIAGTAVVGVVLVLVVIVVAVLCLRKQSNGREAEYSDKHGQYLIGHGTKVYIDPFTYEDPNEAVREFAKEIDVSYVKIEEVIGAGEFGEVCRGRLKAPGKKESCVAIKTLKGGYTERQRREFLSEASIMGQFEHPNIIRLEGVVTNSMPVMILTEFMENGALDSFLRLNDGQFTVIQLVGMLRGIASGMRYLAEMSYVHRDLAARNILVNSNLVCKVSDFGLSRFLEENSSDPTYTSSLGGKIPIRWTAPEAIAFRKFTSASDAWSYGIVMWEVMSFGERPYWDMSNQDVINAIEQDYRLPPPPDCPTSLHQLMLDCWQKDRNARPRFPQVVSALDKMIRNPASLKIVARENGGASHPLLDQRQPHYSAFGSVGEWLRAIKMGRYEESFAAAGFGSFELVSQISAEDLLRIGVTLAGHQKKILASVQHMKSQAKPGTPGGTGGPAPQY
pIC50: −log10 of the molar value.
experimentalEndpoint: pIC50

>>> measuredresult("COc1cc2c(Nc3ccc(Cl)c(Cl)c3F)ncnc2cc1OCC1CN(C)CCO1 (centres undefined)")
"> 7.30"
>>> measuredresult("COc1cc2c(Nc3cc(Cl)c(Br)cc3F)ncnc2cc1OC[C@H]1CN2CCOC[C@H]2CO1")
"6.00 to 7.30"
>>> measuredresult("COc1cc(Nc2ncnc3cc(OCC4CN(C)CCO4)c(OC)cc23)c(OC)cc1Cl (centres undefined)")
"6.00 to 7.30"
>>> measuredresult("COc1cc2c(Nc3ccc(Br)c(Cl)c3)ncnc2cc1O[C@H]1CO[C@H]2[C@@H]1OC[C@@H]2OC(C)=O")
"6.00 to 7.30"
>>> measuredresult("COc1cc2c(Nc3ccc(Cl)c(Br)c3)ncnc2cc1OCC1CN(C)CCO1 (centres undefined)")
"> 7.30"

Give one value of pIC50 per listed molecule.
1. COc1cc2c(Nc3cc(F)c(Br)cc3F)ncnc2cc1OCC1CN(C)CCO1 (centres undefined)
2. COc1cc2c(Nc3ccc(Cl)c(Cl)c3)ncnc2cc1OCC1CN(C(=O)c2c(F)ccc(F)c2F)CCO1 (centres undefined)
3. COc1cc2c(Nc3ccc(Cl)c(Cl)c3)ncnc2cc1OCC1CN(S(=O)(=O)c2ccc(C)cc2)CCO1 (centres undefined)
4. CCC#CCN1CCOC(COc2cc3ncnc(Nc4ccc(Cl)c(Cl)c4)c3cc2OC)C1 (centres undefined)

Result string:
1. 6.00 to 7.30
2. 6.00 to 7.30
3. 4.70 to 6.00
4. 6.00 to 7.30
